Molecular target: Human recombinant FAP (Homo sapiens, UniProt Q12884)
Sequence (Q12884 whole entry): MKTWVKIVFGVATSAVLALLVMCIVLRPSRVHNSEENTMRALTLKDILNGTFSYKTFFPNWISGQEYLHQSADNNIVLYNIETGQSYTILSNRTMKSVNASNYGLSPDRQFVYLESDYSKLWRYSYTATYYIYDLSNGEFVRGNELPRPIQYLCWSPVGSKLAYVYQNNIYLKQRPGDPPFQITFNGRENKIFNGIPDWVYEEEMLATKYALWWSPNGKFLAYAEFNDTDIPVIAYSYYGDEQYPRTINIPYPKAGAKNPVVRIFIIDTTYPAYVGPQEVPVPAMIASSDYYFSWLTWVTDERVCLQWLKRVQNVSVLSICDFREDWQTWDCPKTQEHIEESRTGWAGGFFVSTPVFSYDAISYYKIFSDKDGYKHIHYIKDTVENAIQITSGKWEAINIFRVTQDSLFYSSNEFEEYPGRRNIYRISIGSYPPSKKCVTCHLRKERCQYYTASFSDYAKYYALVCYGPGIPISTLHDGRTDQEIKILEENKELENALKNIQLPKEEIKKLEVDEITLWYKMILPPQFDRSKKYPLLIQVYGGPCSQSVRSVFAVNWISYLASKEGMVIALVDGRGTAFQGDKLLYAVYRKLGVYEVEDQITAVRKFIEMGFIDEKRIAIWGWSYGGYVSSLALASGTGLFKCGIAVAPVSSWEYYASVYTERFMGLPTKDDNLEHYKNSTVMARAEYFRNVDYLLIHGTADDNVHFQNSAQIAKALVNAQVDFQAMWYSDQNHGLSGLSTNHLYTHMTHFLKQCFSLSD
Assay: FRET-based FAP protease activity assay
Format: biochemical
Set-up: purchased R&D systems 3715-SE
Settings: pIC50 Category (Activity), recombinant human FAP, FRET substrate, 37° C.
Numbered stars: 1 amine (or outer) side, 2 acyl side, 3 side chain; on linkers, the order of the positions; unused ones are H or OH. Bridge positions count the residues as written; N and C are the ends. Square brackets hold non-standard residues; d marks the D form. Peptide text beside a SMILES is read from it. * marks the point of attachment. X22 = O=C1CN2CCN3CCN(CC(=O)N4CCN(Cc5cc(C[*:1])cc(C[*:2])c5)CC4)CCN(CC2)CC(=O)[O][Lu]([O]1)[O]C(=O)C3; mXylylene = c1cc(C[*:1])cc(C[*:2])c1; 2Thi = N[C@@H](Cc1cccs1)C(=O)O; Hexanoyl = CCCCCC(=O)*
readout.kind: IC50

{"columns": ["molecule", "result"],
 "data": [
  ["CCCCCC(=O)N[C@H]1CSCc2cc(CSCCNC(=O)CN3CCN(CC(=O)O)CCN(CC(=O)O)CCN(CC(=O)O)CC3)cc(c2)CSC[C@@H](C(=O)NCC(=O)O)NC(=O)[C@H](Cc2ccccc2)NC(=O)[C@H](CCC(N)=O)NC(=O)[C@H]([C@@H](C)O)NC(=O)[C@@H]2CCCN2C(=O)[C@@H]2CCCN2C1", "< 10 nM"],
  ["CSCC[C@H](NC(C)=O)C(=O)N[C@H]1CSCc2cccc(c2)CSC[C@@H](C(=O)N[C@@H](CC(=O)O)C(=O)N[C@@H](Cc2c[nH]cn2)C(=O)N[C@@H](Cc2ccccc2)C(=O)N[C@@H](CCCNC(=N)N)C(=O)N[C@@H](CC(=O)O)C(N)=O)NC(=O)[C@H](Cc2ccccc2)NC(=O)[C@@H](CCC(=O)O)NC(=O)[C@H]([C@@H](C)O)NC(=O)[C@@H]2CCCN2C(=O)[C@@H]2CCCN2C1=O [3BP-3179] (Ac-MCPPT[dE]FCDHFRD-NH2; linker 2-8 via mXylylene)", "100 to 794 nM"],
  ["CCCCCC(=O)N[C@H]1CSCc2cc(cc(CN3CCN(C(=O)CN4CCN5CCN6CCN(CC4)CC(=O)[O][Lu]([O]C(=O)C6)[O]C(=O)C5)CC3)c2)CSC[C@@H](C(=O)N[C@@H](CC(=O)O)C(N)=O)NC(=O)[C@H](Cc2ccccc2)NC(=O)[C@H](CCC(N)=O)NC(=O)[C@H]([C@@H](C)O)NC(=O)[C@@H]2CCCN2C(=O)[C@@H]2CCCN2C1=O [3BP-3591] (Hexanoyl-CPPTQFCD-NH2; linker 1-7 via X22)", "< 10 nM"],
  ["CCCCCC(=O)N[C@H]1CSCc2cccc(c2)CSC[C@@H](C(=O)N[C@@H](CCCCNC(=O)CN2CCN(CC(=O)O)CCN(CC(=O)O)CCN(CC(=O)O)CC2)CC(=O)O)NC(=O)[C@H](Cc2ccccc2)NC(=O)[C@H](CCC(N)=O)NC(=O)[C@H]([C@@H](C)O)NC(=O)[C@@H]2CCCN2C(=O)[C@@H]2CCCN2C1=O", "< 10 nM"],
  ["CSCC[C@H](NC(C)=O)C(=O)N[C@H]1CSCc2cccc(c2)CSC[C@@H](C(=O)N[C@@H](CC(=O)O)C(=O)N[C@@H](Cc2c[nH]cn2)C(=O)N[C@@H](Cc2cccs2)C(=O)N[C@@H](CCCNC(=N)N)C(=O)N[C@@H](CC(=O)O)C(N)=O)NC(=O)[C@H](Cc2ccccc2)NC(=O)[C@H](CCC(=O)O)NC(=O)[C@H]([C@@H](C)O)NC(=O)[C@@H]2CCCN2C(=O)[C@@H]2CCCN2C1=O [3BP-3193] (Ac-MCPPTEFCDH[2Thi]RD-NH2; linker 2-8 via mXylylene)", "< 10 nM"]
]}
